test: Monitoring of the plasma concentration of the main oligosaccharides of a VLMWH in human volunteers (plasma filtration + anion-exchange HPLC); type: in vivo; conditions: 2.5 h after administration of VLMWH (2500 Da) 1.4 mg/kg
Overview of recorded plasma concentration for various molecules
Value expressed in nM; do not type the unit.

Recorded results for 4 molecules are shown here.
molecule: CC(=O)NC1C(OC2C(C(=O)O)OC(OC3C(COS(=O)(=O)O)OC(OC4C(C(=O)O)OC(OC5C(COS(=O)(=O)O)OC(OC6C(C(=O)O)OC(OC7C(COS(=O)(=O)O)OC(O)C(NS(=O)(=O)O)C7O)C(OS(=O)(=O)O)C6O)C(NS(=O)(=O)O)C5O)C(OS(=O)(=O)O)C4O)C(NS(=O)(=O)O)C3OS(=O)(=O)O)C(O)C2O)OC(COS(=O)(=O)O)C(OC2OC(C(=O)O)=CC(O)C2O)C1O (centres unmarked)
plasma concentration (nM): 30
--
molecule: O=C(O)C1=CC(O)C(OS(=O)(=O)O)C(OC2C(COS(=O)(=O)O)OC(OC3C(C(=O)O)OC(OC4C(COS(=O)(=O)O)OC(O)C(NS(=O)(=O)O)C4O)C(OS(=O)(=O)O)C3O)C(NS(=O)(=O)O)C2O)O1 (centres unmarked)
plasma concentration (nM): 100
--
molecule: CC(=O)NC1C(OC2C(C(=O)O)OC(OC3C(COS(=O)(=O)O)OC(OC4C(C(=O)O)OC(OC5C(COS(=O)(=O)O)OC(O)C(NS(=O)(=O)O)C5O)C(OS(=O)(=O)O)C4O)C(NS(=O)(=O)O)C3OS(=O)(=O)O)C(O)C2O)OC(COS(=O)(=O)O)C(OC2OC(C(=O)O)=CC(O)C2O)C1O (centres unmarked)
plasma concentration (nM): 90
--
molecule: O=C(O)C1=CC(O)C(OS(=O)(=O)O)C(OC2C(COS(=O)(=O)O)OC(O)C(NS(=O)(=O)O)C2O)O1 (centres unmarked)
plasma concentration (nM): 110

Next up:
Task: Given the entry O=C(O)C1=CC(O)C(OS(=O)(=O)O)C(OC2C(COS(=O)(=O)O)OC(OC3C(C(=O)O)OC(OC4C(COS(=O)(=O)O)OC(OC5C(C(=O)O)OC(OC6C(COS(=O)(=O)O)OC(O)C(NS(=O)(=O)O)C6O)C(OS(=O)(=O)O)C5O)C(NS(=O)(=O)O)C4O)C(OS(=O)(=O)O)C3O)C(NS(=O)(=O)O)C2O)O1 (centres unmarked) , report its measured plasma concentration.
Output: 20

---

assay: Monitoring of the plasma concentration of the main oligosaccharides of a VLMWH in human volunteers (plasma filtration + anion-exchange HPLC); type: in vivo; conditions: 2 h after administration of VLMWH (2500 Da) 1.4 mg/kg
# plasma concentration per entry
Provide the reading as a plain figure in nM.

molecule: O=C(O)C1=CC(O)C(OS(=O)(=O)O)C(OC2C(COS(=O)(=O)O)OC(OC3C(C(=O)O)OC(OC4C(COS(=O)(=O)O)OC(O)C(NS(=O)(=O)O)C4O)C(OS(=O)(=O)O)C3O)C(NS(=O)(=O)O)C2O)O1 (stereo not drawn)
plasma concentration, nM: 150

Task: So what's the measured plasma concentration for this one? CC(=O)NC1C(OC2C(C(=O)O)OC(OC3C(COS(=O)(=O)O)OC(OC4C(C(=O)O)OC(OC5C(COS(=O)(=O)O)OC(OC6C(C(=O)O)OC(OC7C(COS(=O)(=O)O)OC(O)C(NS(=O)(=O)O)C7O)C(OS(=O)(=O)O)C6O)C(NS(=O)(=O)O)C5O)C(OS(=O)(=O)O)C4O)C(NS(=O)(=O)O)C3OS(=O)(=O)O)C(O)C2O)OC(COS(=O)(=O)O)C(OC2OC(C(=O)O)=CC(O)C2O)C1O (stereo not drawn)
Output: 40

Task: And what about the molecule CC(=O)NC1C(OC2C(C(=O)O)OC(OC3C(COS(=O)(=O)O)OC(OC4C(C(=O)O)OC(OC5C(COS(=O)(=O)O)OC(O)C(NS(=O)(=O)O)C5O)C(OS(=O)(=O)O)C4O)C(NS(=O)(=O)O)C3OS(=O)(=O)O)C(O)C2O)OC(COS(=O)(=O)O)C(OC2OC(C(=O)O)=CC(O)C2O)C1O (stereo not drawn) ?
Output: 110
